Molecular target: T1, Nrd1 307-491 T431R (Saccharomyces cerevisiae, UniProt P53617 307-491, T431R)
T1 sequence: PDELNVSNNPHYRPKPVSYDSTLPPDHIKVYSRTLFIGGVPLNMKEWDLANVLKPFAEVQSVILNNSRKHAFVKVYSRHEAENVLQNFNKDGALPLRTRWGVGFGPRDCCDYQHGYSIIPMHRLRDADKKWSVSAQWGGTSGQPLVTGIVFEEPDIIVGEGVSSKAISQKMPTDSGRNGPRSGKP
Assay: fluorescence anisotropy; FA: 10 nM RNA, 50 mM sodium phosphate pH 8, 150 mM NaCl, 10 mM beta-mercaptoethanol, 20 C (protein stock in 300 mM NaCl); NMR: same buffer with 300 mM NaCl, 20
Conditions: protein: recombinant; tags: C-terminal His6; label: 5' fluorescein or TAMRA (FA); unlabeled (NMR)
readoutType: Kd (µM)
Number in µM, nothing else.

Challenge: Which Kd value is on record for GCGGGGC (ssRNA) ?
Response given: 48
